Provide the recorded inhibition for the entries that follow.
PROCEDURE DETAILS: A qHTS for Small Molecule Inhibitors of Shiga Toxin; further: 0% is about no effect
CONDITION SET: Vero cells, Shiga toxin protein synthesis inhibition reporter; at 38.7 µM, hits give high values
The campaign covered roughly 290,000 compounds. About 27,000 (9.3%) were called active. The sample as a whole holds a higher share of actives than the screen did.
# output: bare number, implied unit %

Which measured inhibition value corresponds to `Cc1ccc(-n2nc3c(c2NC(=O)c2ccc4c(c2)OCO4)CSC3)c(C)c1` ?
1.3

Which measured inhibition value corresponds to `O=C(Nc1ccccc1N1CCCCC1)c1cccc(F)c1` ?
16.3

Which measured inhibition value corresponds to `Cc1cccc(C(=O)Nc2ccccc2N2CCN(c3ccc(F)cc3)CC2)c1` ?
-3.83

Which measured inhibition value corresponds to `Cc1cc(=O)oc2c3c(cc(OCC(=O)NCc4ccccn4)c12)OC(C)(C)CC3` ?
-3.65

Which measured inhibition value corresponds to `Cc1cc(C)cc(N(CC(=O)N2CC=C(c3ccccc3)CC2)S(=O)(=O)c2c(C)noc2C)c1` ?
-8.45

Which measured inhibition value corresponds to `CCOCCCNC(=O)c1cn(CC(C)C)c(=O)c2c1c1ccccc1n2C` ?
-4

Which measured inhibition value corresponds to `COc1ccc(/C=C/c2c(-c3cccc(C)c3)oc3ccc(-c4ccc5c(c4)OCO5)cc23)cc1` ?
-4.7

Which measured inhibition value corresponds to `CC(C)CC(=O)Nc1ccc(Cc2ccncc2)cc1` ?
-5.26

Which measured inhibition value corresponds to `Oc1ccc(-c2c(-c3ccccc3)nn3c(C(F)(F)F)cc(C(F)(F)F)nc23)cc1` ?
-10.8

Which measured inhibition value corresponds to `C[C@H](C(=O)CC(=O)OC(C)(C)C)[C@H](O)c1ccc(C(F)(F)F)cc1` ?
1.74

====

Provide the recorded inhibition for the entries that follow.
PROCEDURE DETAILS: A qHTS for Small Molecule Inhibitors of Shiga Toxin; further: 0% is about no effect
CONDITION SET: Vero cells, Shiga toxin protein synthesis inhibition reporter; at 38.7 µM, hits give high values
About 27,000 (9.3%) of roughly 290,000 compounds were called active. The sample holds actives, similar compounds and a random draw of the others, so the mix is not that of the screen.
# output: bare number, implied unit %

Which measured inhibition value corresponds to CCCc1nnc(SCC(=O)N2C(C)CCCC2C)n1CC (configuration not stated) ?
3.99

Which measured inhibition value corresponds to `COc1cc(Nc2nc3ccc(Cl)cc3n3cnnc23)cc(OC)c1OC` ?
-9.44

Which measured inhibition value corresponds to `Cc1nc(-c2ccc(Cl)cc2)sc1C(=O)CBr` ?
52.5

Which measured inhibition value corresponds to `O=C(CSc1nnnn1C1CCCC1)N1CCCCC1` ?
110

Which measured inhibition value corresponds to CC(C)C(=O)Nc1nnc(SCC(=O)N2C(C)CCCC2C)s1 (configuration not stated) ?
-4.35

Which measured inhibition value corresponds to COc1ccc(C2CC(c3cccs3)=Nc3ccccc3S2)cc1OC (configuration not stated) ?
41.1

Which measured inhibition value corresponds to `O=C(OCC(=O)c1cccs1)C1=COCCO1` ?
98.9

Which measured inhibition value corresponds to `O=C(N/N=C\c1cccnc1)c1cc(-c2ccccc2)nc2c(Cl)cccc12` ?
-27

Which measured inhibition value corresponds to `O=C(OCC(=O)c1cccs1)c1ccc([N+](=O)[O-])o1` ?
41.9

Which measured inhibition value corresponds to `O=C(N/N=C/c1cccnc1)c1ccc(NC(=O)c2ccc(F)cc2)cc1` ?
12.4

Which measured inhibition value corresponds to Cc1ccc(OCC(=O)NC(C)c2ccccc2)cc1C (configuration not stated) ?
-6.99

Which measured inhibition value corresponds to CC(Sc1nnnn1C1CCCCC1)C(=O)O (configuration not stated) ?
3.3
